Numbers sourced from ChEMBL document CHEMBL1152505.

- Method Description: Toxicity in mouse
- Type: organism-based
- Settings: in vivo
Metric: TD50 (mg/kg)
Numeric answer only, unit mg/kg assumed.

CC1CC(=O)C=C(Nc2ccc(I)cc2)C1 (configuration not stated) :: 344

Now take the following compound into account.
Ask: Find the recorded TD50 belonging to CC1CC(=O)C=C(Nc2ccc(Cl)cc2)C1 (configuration not stated) and report it.
Result: 111

----------
- Method Description: Toxicity in rat
- Type: organism-based
- Settings: in vivo
Metric: TD50

Some solved cases for reference:
CC1CC(=O)C=C(Nc2ccc(I)cc2)C1 (configuration not stated) :: > 500 mg/kg
COc1cccc(NC2=CC(=O)CC(C)C2)c1 (configuration not stated) :: > 500 mg/kg
CC1CC(=O)C=C(Nc2ccc(Cl)cc2)C1 (configuration not stated) :: > 186 mg/kg
CC1CC(=O)C=C(Nc2ccc([N+](=O)[O-])cc2)C1 (configuration not stated) :: > 500 mg/kg
CC1CC(=O)C=C(Nc2ccc(Br)cc2)C1 (configuration not stated) :: > 500 mg/kg

Ask: Find the recorded TD50 belonging to CC1CC(=O)C=C(Nc2ccc(OC(F)(F)F)cc2)C1 (configuration not stated) and report it.
Result: > 400 mg/kg

Ask: Find the recorded TD50 belonging to CC1CC(=O)C=C(Nc2ccc(C(F)(F)F)cc2)C1 (configuration not stated) and report it.
Result: > 500 mg/kg
